- Target or test system: human TLR7 (Homo sapiens, UniProt Q9NYK1)
- Construct: host or cells: HEK-Blue TLR7 cells (engineered human embryonic kidney cells)
- Sequence (Q9NYK1 27-1049): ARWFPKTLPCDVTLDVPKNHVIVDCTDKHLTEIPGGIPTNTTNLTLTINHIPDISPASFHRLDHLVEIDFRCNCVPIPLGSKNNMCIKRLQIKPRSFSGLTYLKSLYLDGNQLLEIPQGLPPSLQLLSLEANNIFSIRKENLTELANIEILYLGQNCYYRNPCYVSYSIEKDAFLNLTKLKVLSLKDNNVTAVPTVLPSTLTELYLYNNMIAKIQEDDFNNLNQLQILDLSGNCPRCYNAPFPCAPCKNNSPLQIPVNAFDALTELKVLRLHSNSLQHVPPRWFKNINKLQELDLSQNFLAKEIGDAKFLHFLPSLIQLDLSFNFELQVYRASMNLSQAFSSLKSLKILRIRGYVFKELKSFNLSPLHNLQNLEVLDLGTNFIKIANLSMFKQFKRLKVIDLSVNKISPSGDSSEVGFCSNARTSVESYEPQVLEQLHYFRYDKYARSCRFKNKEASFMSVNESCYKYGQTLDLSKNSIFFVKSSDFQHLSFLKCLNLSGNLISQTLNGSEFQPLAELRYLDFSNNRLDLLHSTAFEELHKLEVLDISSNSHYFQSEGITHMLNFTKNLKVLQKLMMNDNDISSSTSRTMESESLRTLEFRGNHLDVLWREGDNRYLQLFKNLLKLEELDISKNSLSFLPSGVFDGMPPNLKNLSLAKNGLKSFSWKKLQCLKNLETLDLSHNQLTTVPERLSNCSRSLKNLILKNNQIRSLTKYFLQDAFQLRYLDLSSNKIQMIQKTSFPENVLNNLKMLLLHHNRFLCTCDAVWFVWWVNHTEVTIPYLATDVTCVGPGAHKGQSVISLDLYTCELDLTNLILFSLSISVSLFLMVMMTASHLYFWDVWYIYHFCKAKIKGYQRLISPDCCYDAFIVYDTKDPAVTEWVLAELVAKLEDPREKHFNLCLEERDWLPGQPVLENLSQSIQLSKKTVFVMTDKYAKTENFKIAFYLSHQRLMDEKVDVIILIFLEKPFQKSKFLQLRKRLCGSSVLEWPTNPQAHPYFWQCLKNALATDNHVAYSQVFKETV
- Assay text: Human TLR7 agonist activity reporter assay (HEK-Blue TLR7 cells, SEAP reporter)
- Type: cell-based
- Test context: 18 h treatment, average where assay repeated, Table A1, read-out: hTLR7 Agonism EC50
pEC50: −log10 of the molar value.
Parameter measured: pEC50

| Molecule | Obs value |
| --- | --- |
| CCCCNc1nc(N)nc2cnn(Cc3cc(CN(C)C(=O)CCOC)ccc3OC)c12 | 6.30 |
| CCCCNc1nc(N)nc2cnn(Cc3cc(CO)ccc3OC)c12 | 7.56 |
| CCCCNc1nc(N)nc2cnn(Cc3cc(CNC4CC45CC5)ccc3OC)c12 (centres unmarked) | 6.25 |
| CCCCNc1nc(N)nc2cnn(Cc3cc(CN4CCC5CCC(C5)C4)ccc3OC)c12 (centres unmarked) [Compound 103] | 6.71 |
| CC[C@@H](CCO)Nc1nc(N)nc2cnn(Cc3cc(CN4CCN(C)CC4)ccc3OC)c12 | 6.57 |
| CCCCNc1nc(N)nc2cnn(Cc3cc(CN4CCN(C)CC4)ccc3OC)c12 | 7.29 |
| CCCCNc1nc(N)nc2cnn(Cc3cc(CN4CC(F)(F)C4)ccc3OC)c12 | 6.11 |
| CCCCNc1nc(N)nc2cnn(Cc3cc(CN4CC5CCCC(C5)C4)ccc3OC)c12 | 6.20 |

* * *

Each entry below carries its recorded pEC50.
- Target or test system: human TLR7 (Homo sapiens)
- Construct: host or cells: HEK-Blue TLR7 cells (engineered human embryonic kidney cells)
- Assay text: Human TLR7 agonist activity reporter assay (HEK-Blue TLR7 cells, SEAP reporter)
- Assay type: cell-based
- Test context: 18 h treatment, average where assay repeated, Table A1, read-out: hTLR7 Agonism EC50
pEC50: −log10 of the molar value.

| Compound | pEC50 |
| --- | --- |
| CCCCNc1nc(N)nc2cnn(Cc3cc(CN4CCNCC4)ccc3OC)c12 [Compound 134] | 6.70 |
| CCCCNc1nc(N)nc2cnn(Cc3cc(COC4COC4)ccc3OC)c12 [Compound 141] | 6.30 |
| CCC[C@@H](CCO)Nc1nc(N)nc2cnn(Cc3cc(CN4CCNCC4)ccc3OC)c12 [Compound 155] | 6.82 |
| CCCCNc1nc(N)nc2cnn(Cc3cc(CN4CCN(C(=O)C5CCC5)CC4)ccc3OC)c12 [Compound 138] | 5.68 |
| CCCCNc1nc(N)nc2cnn(Cc3cc(CN4CC(OC)C4)ccc3OC)c12 [Compound 105] | 6.91 |
| COc1ccc(CN2CC(OC)C2)cc1Cn1ncc2nc(N)nc(NCC[C@H](O)C3CC3)c21 [Compound 160] | 6.13 |
| CCC[C@@H](CCO)Nc1nc(N)nc2cnn(Cc3cc(CN[C@H]4COC[C@@H]4O)ccc3OC)c12 [Compound 184] | 6.47 |
| CCC[C@@H](CCO)Nc1nc(N)nc2c(C)nn(Cc3cc(CN4CCNCC4)ccc3OC)c12 [Compound 161] | 6.47 |
| CCCCNc1nc(N)nc2cnn(Cc3cc(CN(C)C(=O)CC(C)(C)O)ccc3OC)c12 [Compound 148] | 6.18 |
| CCCCNc1nc(N)nc2cnn(Cc3cc(COC)ccc3OC)c12 [Compound 139] | 6.48 |
| CCCCNc1nc(N)nc2cnn(Cc3cc(CN4CC5CCS(=O)(=O)C5C4)ccc3OC)c12 (centres unmarked) [Compound 113] | 6.31 |
| CCC[C@@H](CCO)Nc1nc(N)nc2cnn(Cc3cc(CN4CC5(CN(C)C5)C4)ccc3OC)c12 [Compound 158] | 6.22 |
| CCCCNc1nc(N)nc2cnn(Cc3cc(CN4CC(O)C4)ccc3OC)c12 [Compound 108] | 6.84 |
| COc1ccc(CN2CC(OC)C2)cc1Cn1ncc2nc(N)nc(NCC3CC4(CC4)C3)c21 [Compound 149] | 6.57 |
| CCCCNc1nc(N)nc2cnn(Cc3cc(CN(C)C(=O)CCN(C)C)ccc3OC)c12 [Compound 128] | 7.25 |
| CCCCNc1nc(N)nc2cnn(Cc3cc(CN4CCN(C5CCC5)CC4)ccc3OC)c12 [Compound 130] | 7.30 |
| CCCCNc1nc(N)nc2cnn(Cc3cc(CNC4COC4)ccc3OC)c12 [Compound 122] | 6.26 |

* * *

- Target or test system: human TLR7 (Homo sapiens)
- Construct: host or cells: HEK-Blue TLR7 cells (engineered human embryonic kidney cells)
- Sequence (Q9NYK1 27-1049): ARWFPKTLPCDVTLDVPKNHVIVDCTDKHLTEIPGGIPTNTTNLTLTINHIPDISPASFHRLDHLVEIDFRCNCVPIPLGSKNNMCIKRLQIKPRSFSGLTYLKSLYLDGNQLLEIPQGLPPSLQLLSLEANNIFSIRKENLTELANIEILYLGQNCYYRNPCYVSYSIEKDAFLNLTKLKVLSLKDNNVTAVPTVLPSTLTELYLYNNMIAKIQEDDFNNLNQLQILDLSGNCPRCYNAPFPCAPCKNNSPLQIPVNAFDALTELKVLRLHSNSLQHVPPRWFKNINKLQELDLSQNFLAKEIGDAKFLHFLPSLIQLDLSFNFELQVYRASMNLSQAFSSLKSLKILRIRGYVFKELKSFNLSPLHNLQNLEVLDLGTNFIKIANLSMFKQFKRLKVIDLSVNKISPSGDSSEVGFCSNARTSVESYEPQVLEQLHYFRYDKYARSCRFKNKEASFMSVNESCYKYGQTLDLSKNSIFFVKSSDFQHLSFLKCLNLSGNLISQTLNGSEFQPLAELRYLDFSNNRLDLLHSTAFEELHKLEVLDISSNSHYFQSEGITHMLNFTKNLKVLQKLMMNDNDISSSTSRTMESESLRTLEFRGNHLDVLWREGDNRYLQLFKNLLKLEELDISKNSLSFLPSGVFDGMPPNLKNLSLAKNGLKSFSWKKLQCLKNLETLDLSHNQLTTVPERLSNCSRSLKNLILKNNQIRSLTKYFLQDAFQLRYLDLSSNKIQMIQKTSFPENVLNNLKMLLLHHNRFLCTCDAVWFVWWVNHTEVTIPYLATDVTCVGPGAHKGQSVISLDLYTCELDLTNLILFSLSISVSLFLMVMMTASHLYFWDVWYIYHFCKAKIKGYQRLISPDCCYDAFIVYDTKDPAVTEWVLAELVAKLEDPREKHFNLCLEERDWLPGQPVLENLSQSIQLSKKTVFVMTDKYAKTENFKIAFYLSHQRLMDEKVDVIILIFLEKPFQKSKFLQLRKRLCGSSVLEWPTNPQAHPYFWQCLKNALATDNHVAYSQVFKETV
- Assay text: Human TLR7 agonist activity reporter assay (HEK-Blue TLR7 cells, SEAP reporter)
- Type: cell-based
- Test context: 18 h treatment, average where assay repeated, Table A1, read-out: hTLR7 Agonism EC50
- Procedure: This procedure describes a method for assaying human TLR7 (hTLR7) agonist activity of the compounds disclosed in this specification. HEK-Blue™ TLR7 cells were added to each well of a 384-well tissue-culture plate (15,000 cells per well) and incubated 16-18 h at 37° C., 5% CO2. […] After 18 h treatment ten microliters of freshly-prepared Quanti-Blue™ reagent (Invivogen) was added to each well, incubated for 30 min (37° C., 5% CO2) and SEAP levels measured using an Envision plate reader (OD=620 nm). […]
pEC50: −log10 of the molar value.

| Compound | pEC50 |
| --- | --- |
| CCCCNc1nc(N)nc2cnn(Cc3cc(CNCC4(N)CCC4)ccc3OC)c12 | 6.23 |
| COc1ccc(CNC2CCOCC2)cc1Cn1ncc2nc(N)nc(NCC3CC4(CC4)C3)c21 | 6.41 |
| CCCCNc1nc(N)nc2cnn(Cc3cc(CNC4CC4)ccc3OC)c12 | 6.94 |
| CCCCNc1nc(N)nc2cnn(Cc3cc(CN4CCN(CCO)CC4)ccc3OC)c12 | 6.97 |
| CCCCNc1nc(N)nc2cnn(Cc3cc(CNC(=O)CN(C)C)ccc3OC)c12 | 7.29 |
| CCCCNc1nc(N)nc2cnn(Cc3cc(CNC(C)(C)C)ccc3OC)c12 | 6.60 |
| CCCCNc1nc(N)nc2cnn(Cc3cc(CN4CCC5CCC(C5)C4)ccc3OC)c12 (centres unmarked) [Compound 102] | 6.18 |
| CCCCNc1nc(N)nc2cnn(Cc3cc(CN4CC5CC4CN5)ccc3OC)c12 (centres unmarked) | 6.37 |
